Molecular target: T1, DLG3_2, Q92796
T1 sequence (Q92796 221-321, limits assumed, looked up): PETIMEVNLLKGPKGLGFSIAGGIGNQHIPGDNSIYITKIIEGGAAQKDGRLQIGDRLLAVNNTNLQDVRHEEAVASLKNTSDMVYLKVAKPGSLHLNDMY
Test: holdup assay
Design: key: below the threshold = too weak to quantify, mostly under pKd 3.1 to 4
Conditions: plain residues with an end cap or a label only (N-terminal biotin on a linker: ttds)
Readout: pKd
Answers are plain numbers.

Worked cases, answers included:
binder="KLVIKTETTV [RASSF6, Q6ZTQ3]" measured_result=5.53
binder="SGGKRKETLV [NET1, Q7Z628]" measured_result=5.43
binder="PSRDRKETSI [RALBP1, Q15311]" measured_result=4.35
binder="SSIDLWETAL [SLC15A5, A6NIM6]" measured_result=4.28

// batch mode: one pKd value per listed entry
1. FVETQHQTQV [FAT3, Q8TDW7]
2. QRPYRRESEI [KCNJ12, Q14500]

Result:
4.71
4.28
